- TARGET_DESC: porcine α-amylase (Sus scrofa)
- Sequence (P00690 16-511): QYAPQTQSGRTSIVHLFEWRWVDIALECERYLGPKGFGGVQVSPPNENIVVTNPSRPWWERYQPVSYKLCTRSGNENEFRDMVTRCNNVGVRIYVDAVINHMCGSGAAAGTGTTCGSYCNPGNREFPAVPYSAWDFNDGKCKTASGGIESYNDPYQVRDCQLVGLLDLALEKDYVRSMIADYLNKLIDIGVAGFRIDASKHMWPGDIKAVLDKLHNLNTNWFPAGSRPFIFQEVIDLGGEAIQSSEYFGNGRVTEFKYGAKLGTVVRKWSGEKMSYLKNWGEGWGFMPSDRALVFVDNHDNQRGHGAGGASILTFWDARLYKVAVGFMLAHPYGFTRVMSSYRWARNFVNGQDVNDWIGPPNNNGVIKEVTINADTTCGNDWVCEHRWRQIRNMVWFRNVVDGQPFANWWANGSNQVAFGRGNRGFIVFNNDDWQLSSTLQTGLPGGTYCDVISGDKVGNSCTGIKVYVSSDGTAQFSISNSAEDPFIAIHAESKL
MEASUREMENT_TYPE: IC50 (µM)
Give bare numbers, in µM.

Log: porcine α-amylase (Sus scrofa), compound C[C@@H]1O[C@@H](OC[C@H]2O[C@@H](Oc3c(-c4ccc(O)c(O)c4)oc4cc(O)cc(O)c4c3=O)[C@H](O)[C@@H](O)[C@@H]2O)[C@H](O)[C@H](O)[C@H]1O , IC50 = 142
